The binders listed here are annotated with their Kd.
# assayed-target: T1, protocadherin-15 EC1+2, wild type, His-tagged (mouse, UniProt Q99PJ1 27-259)
# T1 construct: Protocadherin-15 (PCDH15), mouse, N-terminal fragment EC1+2; pET21a, NdeI/XhoI; predicted molecular weight 27.5 kDa; Held on the Ni-NTA chip by its His tag in SPR; also called pcdh15; pcdh15(WT); not shown: His6, C-terminal, kept
# test-description: SPR; Biacore T100, Ni-NTA chip, 6xHis pcdh15 immobilised, tag-free cdh23 0.25 to 30 μM injected, 25°C, SEC buffer; KD from binding isotherms (Biacore T100 evaluation software)
# condition-details: both partners purified
Note: unit nM is implicit; provide only the numeric part.

Example entries and their recorded answers appear below.
binder	unit-string	Kd
cadherin-23 EC1+2 (residues 1-205) F7E, tagless (domain or fragment, mouse, an Ala residue included between CDH23 EC2 and the intein tag to improve cleavage efficiency; Mutant of m8; That the added Ala stays on the C-terminus after cleavage is surmised; also called cdh23(F7E)) QVNRLPEFTNHFFDTYLLISEDTPVGSSVTQLLARDMDNDPLVFGVSGEEASRFFAVEPDTGVVWLRQPLDRETKSEFTVEFSVSDHQGVITRKVNIQVGDVNDNAPTFHNQPYSVRIPENTPVGTPIFIVNATDPDLGAGGSVLYSFQPPSPFFAIDSARGIVTVIQELDYEVTQAYQLTVNATDQDKTRPLSTLANLAIIITDA	nM	1580
cadherin-23 EC1+2 (residues 1-205) S76V, tagless (domain or fragment, mouse, an Ala residue included between CDH23 EC2 and the intein tag to improve cleavage efficiency; Mutant of m8; That the added Ala stays on the C-terminus after cleavage is surmised; also called cdh23(S76V)) QVNRLPFFTNHFFDTYLLISEDTPVGSSVTQLLARDMDNDPLVFGVSGEEASRFFAVEPDTGVVWLRQPLDRETKVEFTVEFSVSDHQGVITRKVNIQVGDVNDNAPTFHNQPYSVRIPENTPVGTPIFIVNATDPDLGAGGSVLYSFQPPSPFFAIDSARGIVTVIQELDYEVTQAYQLTVNATDQDKTRPLSTLANLAIIITDA	nM	1160
cadherin-23 EC1+2 (residues 1-205), wild type, tagless (domain or fragment, mouse, an Ala residue included between CDH23 EC2 and the intein tag to improve cleavage efficiency; pTXB1, NdeI/SapI; That the added Ala stays on the C-terminus after thiol-induced cleavage, and that a start Met precedes residue 1, are surmised; also called tag-free cdh23; tagless cdh23) QVNRLPFFTNHFFDTYLLISEDTPVGSSVTQLLARDMDNDPLVFGVSGEEASRFFAVEPDTGVVWLRQPLDRETKSEFTVEFSVSDHQGVITRKVNIQVGDVNDNAPTFHNQPYSVRIPENTPVGTPIFIVNATDPDLGAGGSVLYSFQPPSPFFAIDSARGIVTVIQELDYEVTQAYQLTVNATDQDKTRPLSTLANLAIIITDA	nM	1380

Input line: Given the binder cadherin-23 EC1+2 (residues 1-205) T15E, tagless (domain or fragment, mouse, an Ala residue included between CDH23 EC2 and the intein tag to improve cleavage efficiency; Mutant of m8; That the added Ala stays on the C-terminus after cleavage is surmised; also called cdh23(T15E)) QVNRLPFFTNHFFDEYLLISEDTPVGSSVTQLLARDMDNDPLVFGVSGEEASRFFAVEPDTGVVWLRQPLDRETKSEFTVEFSVSDHQGVITRKVNIQVGDVNDNAPTFHNQPYSVRIPENTPVGTPIFIVNATDPDLGAGGSVLYSFQPPSPFFAIDSARGIVTVIQELDYEVTQAYQLTVNATDQDKTRPLSTLANLAIIITDA , what is its reported Kd?
Output line: 880
